Each recorded value in this set is attributed to ChEMBL document CHEMBL1122462.

Test system: Rattus norvegicus
Experiment: In vivo Triglyceride lowering activity at dose as 0.01 % of the diet
Format: functional
Please provide measured serum triglyceride level (% of control) for the entries that follow.
One number for each entry, in %.

Sample records with serum triglyceride level (% of control):
- O=C(O)c1ccc(NCCCCCCCCCCCOc2ccc(C(=O)O)cc2)cc1: 90
- CCCCSCCCCCCCCCCCNc1ccc(C(=O)O)cc1: 79
- CCCCCCCCCCCCCCCCN(CS(=O)(=O)[O-])c1ccc(C(=O)O)cc1.[Na+]: 79
- CCCCCCCCCCCCCCC(C)Nc1ccc(C(=O)O)cc1 (stereo not drawn): 79
- O=C(O)c1ccc(NCCCCCCCCCCCCCCCCS)cc1: 67

Below is a list of molecules. For each, state its recorded serum triglyceride level (% of control).
1. O=C(O)c1ccc(NCCCCCCCCCCCBr)cc1
2. O=C([O-])CCCCCCCCCCCCCCCNc1ccc(C(=O)[O-])cc1.[Na+].[Na+]
3. CCCCCCCCCCCCCCCCN(CS(=O)(=O)[O-])c1ccc(C(=O)[O-])cc1.[Na+].[Na+]
4. CCOC(=O)c1ccc(NCCCCCCCCCCCCCCC(C)(C)C)cc1
5. CCCCCCCCCCCCCCCCN(C(=O)CCC(=O)O)c1ccc(C(=O)O)cc1
6. CCCCCCCCCCCCCCCCN(CC(=O)O)c1ccc(C(=O)O)cc1
7. C[Si](C)(C)CCCNc1ccc(C(=O)[O-])cc1.[Na+]

78
93
77
79
84
105
102

Below is a list of molecules. For each, state its recorded serum triglyceride level (% of control).
1. CCCC[S+]([O-])CCCCCCCCCCCNc1ccc(C(=O)O)cc1 (stereo not drawn)
2. CCCCCCCCCCC(C#N)CCCCCNc1ccc(C(=O)O)cc1 (stereo not drawn)
3. CCOC(=O)c1ccc(NCCCCCCCCCCCCCCCCSC(C)=O)cc1
4. CC(C)CCCCCCCCCCCCCNc1ccc(C(=O)O)cc1
5. CCOC(=O)c1ccc(NCCCCCCCCCCC[Si](C)(C)C)cc1
6. CCCCCCCCCCC(Cl)CCCCCNc1ccc(C(=O)OCC)cc1 (stereo not drawn)
7. CCOC(=O)c1ccc(NC(=O)CCCCCCCCCCCCC[Si](C)(C)C)cc1

1: 87; 2: 75; 3: 91; 4: 77; 5: 113; 6: 82; 7: 99

Below is a list of molecules. For each, state its recorded serum triglyceride level (% of control).
1. C[Si](C)(C)CCCCCCCCCCCNc1ccc(C(=O)[O-])cc1.[Na+]
2. COCCCCCCCCCCCCCCCCNc1ccc(C(=O)O)cc1
3. O=C(O)c1ccc(NCC2CCCCC2)cc1
4. CCOC(=O)c1ccc(NC(=O)CCCCCCCCCCCCCCCBr)cc1
5. CCCCOCCCCCCCCCCCNc1ccc(C(=O)O)cc1
6. CCCCCCCCCCC(=O)CCCCCNc1ccc(C(=O)OCC)cc1

122
76
73
84
74
103

====

Tested on: Rattus norvegicus
Assay: In vivo Triglyceride lowering activity at dose as 0.01 % of the diet
Format: functional
Please provide measured serum triglyceride level (% of control) for the entries that follow.
Answers are plain numbers, in %.

Sample records with serum triglyceride level (% of control):
- CCCCCCCCCCCCCCCC(=O)Nc1ccc(C(=O)O)cc1: 103
- Br.CCOC(=O)c1ccc(NCCCCCCCCCCCSC(=N)N)cc1: 85

Below is a list of compounds. For each, state its recorded serum triglyceride level (% of control).
1. CCCCCCCCCCC(N)CCCCCNc1ccc(C(=O)[O-])cc1.[Na+] (centres undefined)
2. O=C(O)CCCCCCCCCCCCCCCNc1ccc(C(=O)O)cc1
3. CCOC(=O)c1ccc(NCCCCCCCCCCCCC(C)(C)C)cc1
4. CCCCCCCCCCCCCCCCN(CC(=O)OCC)c1ccc(C(=O)OC)cc1
5. CCOC(=O)c1ccc(NCCCCCCCCCCCCCC(C)C)cc1
6. CCOC(=O)c1ccc(NCCCCCCCCCCCCCCCC(=O)O)cc1

68
124
99
113
84
99
